Consider the following sequences and their measured protein stability index readings.
Tested on: Saccharomyces cerevisiae
Test: protein stability index of tFT-peptide fusion (C-terminal peptide) (PSI (0-1 scale)); higher = more stable (slower turnover);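 note: PSI is a weighted mean of sequencing reads over stability bins, variants kept only with over 10 reads, mCherry proximal and sfGFP distal, peptide attached via GGGS linker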
Conditions: genetic background: das1 deletion; temperature: 30 C

{"Entry sequence": "LRNVPCLVFFWV", "Target desc": "Saccharomyces cerevisiae", "protein stability index": 0.439}
{"Entry sequence": "WLFAILPSRLIA", "Target desc": "Saccharomyces cerevisiae", "protein stability index": 0.344}
{"Entry sequence": "VCLLGWGVRLVS", "Target desc": "Saccharomyces cerevisiae", "protein stability index": 0.609}
{"Entry sequence": "IVFFVLFRFWRF", "Target desc": "Saccharomyces cerevisiae", "protein stability index": 0.326}
{"Entry sequence": "VVGLSLLFSGGV", "Target desc": "Saccharomyces cerevisiae", "protein stability index": 0.644}
{"Entry sequence": "GYLFICSWCEGF", "Target desc": "Saccharomyces cerevisiae", "protein stability index": 0.363}
{"Entry sequence": "FFYRFQDLPRIC", "Target desc": "Saccharomyces cerevisiae", "protein stability index": 0.651}
{"Entry sequence": "RWGLFIGIVIGF", "Target desc": "Saccharomyces cerevisiae", "protein stability index": 0.219}
{"Entry sequence": "CLTGWFGIFSAP", "Target desc": "Saccharomyces cerevisiae", "protein stability index": 0.678}
{"Entry sequence": "LNVEEGGGLENV", "Target desc": "Saccharomyces cerevisiae", "protein stability index": 0.631}

====

Tested on: Saccharomyces cerevisiae
Test: protein stability index of tFT-peptide fusion (C-terminal peptide) (PSI (0-1 scale)); higher = more stable (slower turnover)
Conditions: genetic background: wild type; temperature: 30 C

{"Entry sequence": "NTQSRNKSYTER", "protein stability index": 0.671}
{"Entry sequence": "AFWYACMSLHRS", "protein stability index": 0.728}
{"Entry sequence": "RYGYCVPNVMRS", "protein stability index": 0.778}
{"Entry sequence": "PRPLLVPPLFKS", "protein stability index": 0.768}
{"Entry sequence": "PSPPPPPPPGSF", "protein stability index": 0.677}
{"Entry sequence": "VFTFGAGFGARL", "protein stability index": 0.801}
{"Entry sequence": "RASGNHVNQVDC", "protein stability index": 0.719}
{"Entry sequence": "RGGGGGEWGEQR", "protein stability index": 0.702}
{"Entry sequence": "LSVFDTSLFFSS", "protein stability index": 0.787}
{"Entry sequence": "LSPPLRFPPPPP", "protein stability index": 0.709}
{"Entry sequence": "QKKKILNKQRTK", "protein stability index": 0.681}
{"Entry sequence": "LPPAVIVCVLPS", "protein stability index": 0.586}
{"Entry sequence": "LRARSSKPPYWL", "protein stability index": 0.737}
{"Entry sequence": "PFRSFSPPPRAP", "protein stability index": 0.742}
{"Entry sequence": "PLALSPNPLSRT", "protein stability index": 0.679}
{"Entry sequence": "RKKIRKNITQQP", "protein stability index": 0.692}
{"Entry sequence": "GGGVGVVWVRLG", "protein stability index": 0.256}
{"Entry sequence": "VLLSSSLVFLIS", "protein stability index": 0.462}
{"Entry sequence": "LVCRRYSGDSSS", "protein stability index": 0.637}
